As shown below, each of these compounds has a reported log10(Ki) value.
- experimental target: Histamine H3 receptor
- protocol summary: In Vitro Histamine H3 Receptor Binding Analysis ([3H]-N-alpha-methylhistamine displacement, rat cortical membranes)
- assay setup: [3H]-N-alpha-methylhistamine 0.8-1.2 nM, pH 7.4, 40 min, 25° C, read-out: Histamine H3 Receptor Binding Affinities, H3 Receptor Ki
All values: base-10 log of Ki in nM.

Consider the reported log10(Ki) for these compounds:
compound: O=C(CCCC1CCCCC1)[C@@H]1C[C@H]1c1c[nH]cn1 (racemic) [Example 10]
reported endpoint: log10(Ki)
measured: 1.99
--
compound: C(=C/[C@@H]1C[C@H]1c1c[nH]cn1)/CCC1CCCCC1 (relative stereo) [Example 16]
reported endpoint: log10(Ki)
measured: 1.09
--
compound: O=C(N[C@@H]1C[C@H]1c1c[nH]cn1)[C@@H]1CC2CCCCC2N1 (some centres unmarked) [Example 15]
reported endpoint: log10(Ki)
measured: 1.57

Q) Returns the measured log10(Ki) for the input compound. Input: O=C(NCCc1ccccc1)[C@@H]1C[C@H]1c1c[nH]cn1 (relative stereo) [Example 9]
A) 2.21

Q) Returns the measured log10(Ki) for the input compound. Input: O=C(NCC1CC1)[C@@H]1C[C@H]1c1c[nH]cn1 (relative stereo) [Example 32]
A) 2.94

---

- experimental target: Histamine H3 receptor
- protocol summary: In Vitro Histamine H3 Receptor Binding Analysis ([3H]-N-alpha-methylhistamine displacement, rat cortical membranes)
- assay setup: [3H]-N-alpha-methylhistamine 0.8-1.2 nM, pH 7.4, 40 min, 25° C, read-out: Histamine H3 Receptor Binding Affinities, H3 Receptor Ki
Counter-ions that a name gives are not always drawn.
As shown below, each of these molecules has a reported pKi value.
Quick note: pKi means taking -log10 of the concentration in moles per liter.

molecule: O=C(NCc1ccccc1)[C@@H]1C[C@H]1c1c[nH]cn1 (relative stereo) [Example 1, hydrochloride]
experimental target: Histamine H3 receptor
measured: 7.28

molecule: C(=CC1CC1c1c[nH]cn1)CCC1CCCCC1 (stereo not shown) [Example 23]
experimental target: Histamine H3 receptor
measured: 8.21

molecule: C(=C\[C@@H]1C[C@H]1c1c[nH]cn1)/CCC1CCCCC1 (relative stereo)
experimental target: Histamine H3 receptor
measured: 7.96

molecule: O=C(NCC1CCCCC1)[C@@H]1C[C@H]1c1c[nH]cn1 (relative stereo) [Example 2]
experimental target: Histamine H3 receptor
measured: 7.43

molecule: C(=CC1CC1c1c[nH]cn1)CCC1CCCCC1 (stereo not shown) [Example 25]
experimental target: Histamine H3 receptor
measured: 7.25

Q) Returns the measured pKi for the input molecule. Input: C[C@H](NC(=O)C1CC1c1c[nH]cn1)C1CCCCC1 (mixture of isomers) [Example 7, hydrochloride]
A) 6.84

Q) Returns the measured pKi for the input molecule. Input: O=C(NCCc1c[nH]c2ccccc12)[C@@H]1C[C@H]1c1c[nH]cn1 (relative stereo)
A) 7.36

Q) Returns the measured pKi for the input molecule. Input: O=C(NCCCCC1CCCCC1)[C@@H]1C[C@H]1c1c[nH]cn1 (relative stereo)
A) 7.17

Q) Returns the measured pKi for the input molecule. Input: O=C(Nc1ccccc1)[C@@H]1C[C@H]1c1c[nH]cn1 (relative stereo) [Example 5, hydrochloride]
A) 6.57

Q) Returns the measured pKi for the input molecule. Input: c1nc([C@@H]2C[C@H]2COCCCC2CCCCC2)c[nH]1 (racemic)
A) 6.62

Q) Returns the measured pKi for the input molecule. Input: O=C(NCCCC1CCCCC1)C1CC1c1c[nH]cn1 (stereo not shown)
A) 7.38

Q) Returns the measured pKi for the input molecule. Input: C(=CC1CC1c1c[nH]cn1)CCC1CCCCC1 (stereo not shown) [Example 22]
A) 8.62

Q) Returns the measured pKi for the input molecule. Input: NC(CC1CCCCC1)C(=O)NC1CC1c1c[nH]cn1 (stereo not shown) [Example 13]
A) 7.67
